B1: TMEM106C (parent)
chain: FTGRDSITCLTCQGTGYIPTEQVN

variants of: B1; assay: protein stability index of a GFP-peptide fusion (GPS, HEK-293T) (PSI 1-6); higher = more stable; conditions: c terminus: a fixed tail appended;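 further: lentivirally expressed fusions sorted by FACS into six bins by GFP to DsRed ratio, PSI derived from sequencing read proportions per bin multiplied by bin number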
Everything with protein stability index lower than 2 is Condition not met; everything else, including exactly 2, is Condition met.

Decide: is the reported value of protein stability index for FTGRDSITCLTCQGTLYIPTEQVN [G16L] equal to or greater than 2?
Condition met

Is protein stability index at least 2? Consider FTGRDSITCLTCQGTGYIPTEQPN [V23P]
Condition not met

Hi, just wondering whether FTGRDSITCLTCQGTGYIPTEQVP [N24P] shows protein stability index of 2 or higher.
Condition not met

State whether the measured protein stability index reaches 2, counting equality as reaching it, for FTGRDSITCLTCQGTGYIDTEQVN [P19D]
Condition not met

Does protein stability index meet or surpass 2 for FTGRDSITCLTCQGTGYIPDEQVN [T20D] ?
Condition met

Determine whether this variant has protein stability index no lower than 2: FTGRDSITCLTCQGEGYIPTEQVN [T15E]
Condition not met

Please check the record FTGRDSDTCLTCQGTGYIPTEQVN [I7D] and state if its protein stability index is at or above 2.
Condition met

Does the variant FTGRDSITCLTCNGTGYIPTEQVN [Q13N] have recorded protein stability index that is 2 or more?
Condition met

Record FTGRDSITCLTCQGTGYIPTEQVH [N24H] ; criterion: protein stability index no lower than 2. Met?
Condition met

I'd appreciate it if you could say whether FTGRDSITCLTCQGTGYIPTEQEN [V23E] has protein stability index at least equal to 2.
Condition not met

Hello, I need to know if FTGRDSITELTCQGTGYIPTEQVN [C9E] has measured protein stability index not below 2. Thanks!
Condition met

Could you tell me if the measured protein stability index of FTGRDSITCLTCQGPGYIPTEQVN [T15P] reaches 2 or more?
Condition met

Does the variant FTGRDSITCKTCQGTGYIPTEQVN [L10K] have recorded protein stability index that is 2 or more?
Condition met

Could you please find out whether FTGRDSITCLTLQGTGYIPTEQVN [C12L] has protein stability index that meets 2 or exceeds it?
Condition not met

Given FTGRDSITCLTCQGTGYIPTEQLN [V23L] , state whether its protein stability index is at least 2.
Condition not met

State whether the measured protein stability index reaches 2, counting equality as reaching it, for FTGRDSITCLTCQGTGYIPTEEVN [Q22E]
Condition not met

Check the entry FTGRDSITCLTCQGTGYIPTQQVN [E21Q] : does protein stability index equal or exceed 2?
Condition not met

Does the reported protein stability index for FTGRDSITCLTCQGTGYIPTDQVN [E21D] fall at or above the 2 mark?
Condition not met

Given FTGRDMITCLTCQGTGYIPTEQVN [S6M] , state whether its protein stability index is at least 2.
Condition not met

Quick check, protein stability index >= 2? FTGRDSITCLTCQGTGYIPTEPVN [Q22P]
Condition not met

Determine whether this variant has protein stability index no lower than 2: FTGRDSITCDTCQGTGYIPTEQVN [L10D]
Condition met

// inclusive: protein stability index at least 2? input: FTGRDSITCLGCQGTGYIPTEQVN [T11G]
Condition not met

protein stability index >= 2 for FTGMDSITCLTCQGTGYIPTEQVN [R4M] ?
Condition met

Test whether the variant FTGRDSITCLTCQGTGYIPTEQVY [N24Y] records protein stability index of 2 or higher.
Condition met

Please check the record FTGRDSITCLTCQGTGYIPWEQVN [T20W] and state if its protein stability index is at or above 2.
Condition not met

Answer whether protein stability index of FTGRDSIYCLTCQGTGYIPTEQVN [T8Y] is greater than or equal to 2.
Condition met

Assess whether reported protein stability index for FTGRDSITCLTCQGTGYIRTEQVN [P19R] sits at 2 or higher.
Condition not met

Dear colleague, could you confirm whether FTGRDSITCLTCQPTGYIPTEQVN [G14P] has protein stability index at or above 2?
Condition not met

Answer whether protein stability index of FTGRDSITCLTCQGTGYIHTEQVN [P19H] is greater than or equal to 2.
Condition met

Has FTGRDSITCLTCQGAGYIPTEQVN [T15A] a recorded protein stability index greater than or equal to 2?
Condition met

Check if protein stability index >= 2 (inclusive). Item: FTGLDSITCLTCQGTGYIPTEQVN [R4L]
Condition not met

Kindly determine if protein stability index recorded for FTGRDSITCLTCQGTGYIPTEQKN [V23K] is above or exactly 2.
Condition met

Exam item: decide whether the reported protein stability index for FTGRDSHTCLTCQGTGYIPTEQVN [I7H] is at least 2.
Condition met

Check if protein stability index >= 2 (inclusive). Item: FTGCDSITCLTCQGTGYIPTEQVN [R4C]
Condition met

Does the variant FTGRDSITCLTCQGTGYIFTEQVN [P19F] have recorded protein stability index that is 2 or more?
Condition met

Reported protein stability index reaches at least 2 for FTGRDSITCLTCQGTGYIPTEQVE [N24E] ?
Condition met

In plain terms: is recorded protein stability index at least 2 for FTGRDSITCLTCQGTGYIPTEDVN [Q22D] ?
Condition not met

# check: protein stability index of FTGRDSITCLTCQGTPYIPTEQVN [G16P] is greater than or equal to 2
Condition met

Exam item: decide whether the reported protein stability index for FTGRDSITCLTCQGGGYIPTEQVN [T15G] is at least 2.
Condition not met

Is protein stability index for FTGRDSITCLTCQGHGYIPTEQVN [T15H] at or above 2?
Condition met

Confirm if protein stability index reported for the variant FTGRDSVTCLTCQGTGYIPTEQVN [I7V] is 2 or above.
Condition not met

Has FTGRDSITCLTCIGTGYIPTEQVN [Q13I] a recorded protein stability index greater than or equal to 2?
Condition met

Please indicate if the recorded protein stability index for FTGRDPITCLTCQGTGYIPTEQVN [S6P] meets or exceeds 2.
Condition met

Check if protein stability index >= 2 (inclusive). Item: FTGRDSITCLTMQGTGYIPTEQVN [C12M]
Condition met

Given the entry FTGRDSITCLMCQGTGYIPTEQVN [T11M] , answer whether its protein stability index meets or surpasses 2.
Condition not met

Decide: protein stability index of FTIRDSITCLTCQGTGYIPTEQVN [G3I] >= 2?
Condition met

Please tell me: is the variant FTGRDSITCLTCQGTGYIPTEQYN [V23Y] at or over 2 in terms of protein stability index?
Condition not met

# check: protein stability index of FTGRDSITCLTCQGTGYIPTEQMN [V23M] is greater than or equal to 2
Condition not met

Is protein stability index at least 2? Consider FTGRDSITCLTCGGTGYIPTEQVN [Q13G]
Condition met

Does the reported protein stability index for FTGRDSITCLYCQGTGYIPTEQVN [T11Y] fall at or above the 2 mark?
Condition met

State whether the measured protein stability index reaches 2, counting equality as reaching it, for FTGRDSITCLTCQGTQYIPTEQVN [G16Q]
Condition not met

Does protein stability index meet or surpass 2 for FTGRDSITCLTCQFTGYIPTEQVN [G14F] ?
Condition met

Does the reported protein stability index for FTGRDSITCLTCQGTGIIPTEQVN [Y17I] fall at or above the 2 mark?
Condition not met

Is protein stability index at least 2? Consider FTLRDSITCLTCQGTGYIPTEQVN [G3L]
Condition met

Quick check, protein stability index >= 2? FTGRDSGTCLTCQGTGYIPTEQVN [I7G]
Condition met

// inclusive: protein stability index at least 2? input: RTGRDSITCLTCQGTGYIPTEQVN [F1R]
Condition met

Threshold query (protein stability index >= 2) on FTCRDSITCLTCQGTGYIPTEQVN [G3C]
Condition not met

State whether the measured protein stability index reaches 2, counting equality as reaching it, for FTGRDSITCLTCQGTGYIPTEQIN [V23I]
Condition not met

API: above_or_equal(metric=protein stability index, cutoff=2) for item FTGRDSITCLTCQGTGYIPTERVN [Q22R]
Condition met

# check: protein stability index of FTGRDSITCLTDQGTGYIPTEQVN [C12D] is greater than or equal to 2
Condition met

Item FTGRDSITCLTCQGTGYIPTETVN [Q22T] with protein stability index of 2 or above?
Condition met

These entries and their values trace back to the supplement of paper PMC10567573.
